B1: tRNA (parent)
chain: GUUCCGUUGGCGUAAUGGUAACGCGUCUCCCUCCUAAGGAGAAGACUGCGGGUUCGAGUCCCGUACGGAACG

variants of: B1; experiment: yeast fitness, log relative to wild type (ln ratio); higher = fitter; tRNA-Arg(CCU), competitive growth, 37 C, 1 M NaCl
Each entry below lists one item and its recorded yeast fitness (ln) value.

Example entries and their recorded answers appear below.
- Mutant Designation: "C27U C66U A69G A70G"
  Result: -0.19
- Mutant Designation: "U2C C27U C46U C66U A69G A70U C71U"
  Result: -0.411
- Mutant Designation: "G1A U2G C27U A43C C66U A70U C71U"
  Result: -0.382
- Mutant Designation: "G6A C27U A69G C71U"
  Result: -0.243
- Mutant Designation: "U2G C27U C46U C66A A70U C71U"
  Result: -0.134

yeast fitness (ln) lookup needed for U2C G6U C66U A70G , thanks.
-0.0259

yeast fitness (ln) lookup needed for G1A C27U C46U A69G A70G , thanks.
-0.166

yeast fitness (ln) lookup needed for G6U A69G C71U , thanks.
-0.233

yeast fitness (ln) lookup needed for U2G G6A C27U A43C C46U C66U A69G A70G C71U , thanks.
-0.289

yeast fitness (ln) lookup needed for G1A G6U C66U A70G , thanks.
-0.199

yeast fitness (ln) lookup needed for G1A U2C G6A C66U A70G C71U , thanks.
-0.0113

yeast fitness (ln) lookup needed for G1A U2G A43C C46U C71U , thanks.
-0.115

yeast fitness (ln) lookup needed for G6A C27U A43C C46U C66U A69G A70G , thanks.
-0.369

All values here come from the RNAGym collection of RNA variant scans (doi:10.1038/s41586-018-0170-7).
